# Target under test: FXR (Homo sapiens, UniProt Q96RI1)
# Construct: expressed in transfected cells; host or cells: HEK293
# Sequence (Q96RI1 whole entry): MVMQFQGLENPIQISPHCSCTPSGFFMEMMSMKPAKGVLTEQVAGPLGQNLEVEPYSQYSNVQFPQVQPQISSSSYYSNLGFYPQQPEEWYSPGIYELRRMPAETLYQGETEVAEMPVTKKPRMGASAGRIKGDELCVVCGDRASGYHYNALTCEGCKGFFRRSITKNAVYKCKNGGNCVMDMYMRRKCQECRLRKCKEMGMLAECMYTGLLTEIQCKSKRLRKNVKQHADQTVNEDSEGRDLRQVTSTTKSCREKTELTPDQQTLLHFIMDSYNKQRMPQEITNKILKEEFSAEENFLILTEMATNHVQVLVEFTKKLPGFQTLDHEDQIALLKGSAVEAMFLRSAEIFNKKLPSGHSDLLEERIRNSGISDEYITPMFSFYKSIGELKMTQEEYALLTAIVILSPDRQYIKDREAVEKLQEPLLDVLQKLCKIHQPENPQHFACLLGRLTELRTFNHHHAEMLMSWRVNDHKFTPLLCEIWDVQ
# Test description: Luciferase reporter gene assay (HEK293 cotransfected with FXR and human BSEP luciferase reporter)
# Assay type: cell-based
# Applied conditions: HEK293, 18 hours incubation
Recorded metric: EC50 (nM)
Only the number, expressed in nM, is required.

Worked cases, EC50 given:
O=C(O)c1cc(-c2csc(N3[C@@H]4CC[C@H]3C[C@@H](OCc3c(-c5ccccc5OC(F)(F)F)noc3C3CC3)C4)n2)cs1 [Compound C47]: 19
Cn1nc(-c2ccc(N3CCC(OCc4c(-c5c(Cl)cccc5Cl)noc4C4CC4)CC3)cc2)cc1C(=O)O [Compound C4]: 40
O=C(O)c1ccc(-c2csc(N3[C@@H]4CC[C@H]3C[C@@H](OCc3c(-c5ccccc5OC(F)(F)F)noc3C3CC3)C4)n2)s1 [Compound C35]: 91

Now look at this one.
Problem: Find EC50 (FXR (Homo sapiens, UniProt Q96RI1)) for the entry O=C(O)c1ccc(-c2csc(N3CCC(OCc4c(-c5c(Cl)cccc5Cl)noc4C4CC4)CC3)n2)cc1 [Compound C2]
Solution: 20
